# Tested on: IL6 secretion by OCI-LY3 ABC-DLBCL cells
# experimental_details: Human IL6 Mesoscale assay (OCI-LY3)
# Type: cell-based
# test_context: Homo sapiens, 24 h
The following compounds are shown together with reported pIC50 values.
Scale note: pIC50 = -log10(concentration in M).

Ask | Please report the recorded pIC50 for Cc1nc(-n2nccn2)c(Cl)cc1NC(=O)c1cnn(-c2cccc3nccn23)c1C(F)(F)F .
Reply | 7.00

Ask | Given the entry COCCOc1ncc(C(F)(F)F)cc1NC(=O)c1cnn(-c2cccc3c(=O)[nH]ccc23)c1C(F)(F)F , report its measured pIC50.
Reply | 7.82

Ask | What value of measured pIC50 is listed for COc1cc(NC(=O)c2cnn(-c3cccc4ncccc34)c2C(F)(F)F)cnc1-n1nccn1 ?
Reply | 5.66

Ask | Look up pIC50: N#Cc1cc(NC(=O)c2cnn(-c3cccc4c(F)cccc34)c2C(F)(F)F)cnc1-n1nccn1
Reply | 7.28

Ask | For the compound shown here, Cc1nc(-n2nccn2)c(Cl)cc1NC(=O)c1cnn(-c2cccc3scnc23)c1C(F)(F)F , give the reported pIC50.
Reply | 6.80

Ask | Give the measured pIC50 of Cn1ccc(-c2ncc(NC(=O)c3cnn(-c4ccc(F)c5ncccc45)c3C(F)(F)F)cc2C#N)n1 .
Reply | 7.02

Ask | Can you share its pIC50? I mean this compound: Cc1nc(-n2cccn2)c(Cl)cc1NC(=O)c1cnn(-c2cccc3nnsc23)c1C(F)(F)F
Reply | 6.60

Ask | Any idea what its pIC50 is? The compound is CNC(=O)c1ncc(-n2ncc(C(=O)Nc3cnc(-n4nccn4)c(Cl)c3)c2C(F)(F)F)c2ccsc12
Reply | 7.59

---

Attribute: log10 IC50
# System: IL10 secretion by TMD8 ABC-DLBCL cells
# experimental_details: Human IL10 Mesoscale assay (TMD-8)
# Type: cell-based
# test_context: Homo sapiens, TMD8; TMD-8 cells, 24 h
Scale: log10; quantity: IC50; unit before log: nM

Solved entries:
{"compound_smiles": "Cc1cnc2cccc(-n3ncc(C(=O)Nc4cnc(-n5nccn5)c(Cl)c4)c3C(F)(F)F)c2c1", "result_number": 2.08}
{"compound_smiles": "COc1ncc(NC(=O)c2cnn(-c3cccc4ncccc34)c2C(F)(F)F)cc1C#N", "result_number": 2.08}
{"compound_smiles": "O=C1COc2ccc(NC(=O)c3cnn(-c4cccc5ncccc45)c3C(F)(F)F)cc2N1", "result_number": 2.43}

Could you now consider this next compound?
Ask | What does the record list as log10 IC50 for N#Cc1cc(NC(=O)c2cnn(-c3ncnn4cccc34)c2C(F)(F)F)cnc1-n1nccn1 ?
Reply | 1.45

---

Measurement record for full-length MALT1 protein (Strep-MALT1(1-824)-His) (Homo sapiens (Human), UniProt Q9UDY8); quantity recorded: IC50.
Report only the number, with the unit nM understood.

Here is how some compounds turned out for IC50.
{"compound_smiles": "NC(=O)c1ccc2c(-n3ncc(C(=O)Nc4cnc(-n5nccn5)c(Cl)c4)c3C(F)(F)F)cccc2n1", "IC50, nM": 2000}
{"compound_smiles": "O=C(Nc1ccnc(C(F)(F)F)c1)c1cnn(-c2cnc(N3CC(O)C3)c3sccc23)c1C(F)(F)F", "IC50, nM": 72}
{"compound_smiles": "N#Cc1cc(NC(=O)c2cnn(-c3ccnc4ccncc34)c2C(F)(F)F)cnc1-n1nccn1", "IC50, nM": 1700}

# ---- query compound ----
Ask | Look up IC50 with full-length MALT1 protein (Strep-MALT1(1-824)-His) (Homo sapiens (Human), UniProt Q9UDY8) for this compound: O=C(Nc1cnc(OC(F)F)c(Cl)c1)c1cnn(-c2cncc3ccccc23)c1C(F)(F)F
Reply | 447

---

Quick note: these are pIC50 numbers for system: full-length MALT1 protein (Strep-MALT1(1-824)-His) (Homo sapiens (Human))
Sequence (Q9UDY8 whole entry): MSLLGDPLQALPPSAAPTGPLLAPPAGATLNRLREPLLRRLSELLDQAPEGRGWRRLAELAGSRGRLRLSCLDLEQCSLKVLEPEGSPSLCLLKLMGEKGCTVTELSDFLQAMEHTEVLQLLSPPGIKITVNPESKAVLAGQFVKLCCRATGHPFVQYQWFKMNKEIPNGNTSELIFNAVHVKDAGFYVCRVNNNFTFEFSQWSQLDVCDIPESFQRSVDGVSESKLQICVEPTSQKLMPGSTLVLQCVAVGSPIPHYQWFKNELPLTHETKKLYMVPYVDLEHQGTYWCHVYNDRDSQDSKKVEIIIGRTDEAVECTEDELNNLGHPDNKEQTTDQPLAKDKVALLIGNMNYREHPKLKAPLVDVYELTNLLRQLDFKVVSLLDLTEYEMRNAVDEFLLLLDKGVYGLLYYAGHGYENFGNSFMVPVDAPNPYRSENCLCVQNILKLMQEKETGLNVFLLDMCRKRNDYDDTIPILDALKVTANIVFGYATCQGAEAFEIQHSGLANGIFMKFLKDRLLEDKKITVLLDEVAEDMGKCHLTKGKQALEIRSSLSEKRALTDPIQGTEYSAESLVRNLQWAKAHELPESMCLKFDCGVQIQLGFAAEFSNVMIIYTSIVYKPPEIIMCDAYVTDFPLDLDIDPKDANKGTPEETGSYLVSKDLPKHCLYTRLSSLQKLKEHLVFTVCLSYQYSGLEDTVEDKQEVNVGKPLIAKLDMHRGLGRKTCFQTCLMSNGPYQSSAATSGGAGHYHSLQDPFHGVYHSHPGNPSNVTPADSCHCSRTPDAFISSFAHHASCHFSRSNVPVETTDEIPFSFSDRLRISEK
A value of pIC50 is the negative decimal logarithm of a concentration given in moles per litre.

Consider the worked cases shown below.
{"molecule": "N#Cc1cc(NC(=O)c2cnn(-c3nccc4occc34)c2C(F)(F)F)cnc1-n1nccn1", "result_number": 7.72}
{"molecule": "O=C(Nc1cnc(-c2ncc[nH]2)c(Cl)c1)c1cnn(-c2cncc3ccccc23)c1C(F)(F)F", "result_number": 6.69}

Ask | Which pIC50 value is on record for N#Cc1cc(NC(=O)c2cnn(-c3ncnn4cccc34)c2C(F)(F)F)cnc1-n1nccn1 ?
Reply | 7.62

---

# System: IL10 secretion by TMD8 ABC-DLBCL cells
# experimental_details: Human IL10 Mesoscale assay (TMD-8)
# Assay type: cell-based
# test_context: Homo sapiens, TMD8; TMD-8 cells, 24 h
Below, each of the compounds is paired with its reported IC50 value.
Enter your answer as a number in nM; do not include the unit.

Below are worked cases with known answers.
{"compound": "O=C1CO[C@H](c2ncc(-n3ncc(C(=O)Nc4cnc(-n5nccn5)c(Cl)c4)c3C(F)(F)F)c3ccccc23)C1 (single isomer, unassigned)", "subject_of_test": "IL10 secretion by TMD8 ABC-DLBCL cells", "result_units": "nM", "IC50": 1000}
{"compound": "COC(=O)c1cc(-c2ncc(NC(=O)c3cnn(-c4cccc5ncccc45)c3C(F)(F)F)cc2C#N)nn1C", "subject_of_test": "IL10 secretion by TMD8 ABC-DLBCL cells", "result_units": "nM", "IC50": 56}
{"compound": "O=C(Nc1cnc(-n2nccn2)c(Cl)c1)c1cnn(-c2cccc3cnccc23)c1C(F)(F)F", "subject_of_test": "IL10 secretion by TMD8 ABC-DLBCL cells", "result_units": "nM", "IC50": 98}
{"compound": "O=C(Nc1cnc(-n2nccn2)c(Cl)c1)c1cnn(-c2c(F)ccc3nccn23)c1C(F)(F)F", "subject_of_test": "IL10 secretion by TMD8 ABC-DLBCL cells", "result_units": "nM", "IC50": 1900}
{"compound": "COC(=O)c1ncc(NC(=O)c2cnn(-c3cccc4ncccc34)c2C(F)(F)F)cc1Cl", "subject_of_test": "IL10 secretion by TMD8 ABC-DLBCL cells", "result_units": "nM", "IC50": 316}

Ask | Recorded IC50 of O=C(Nc1cnc(-n2nccn2)c(Cl)c1)c1cnn(-c2cccc3nc(C4CCN4)ccc23)c1C(F)(F)F (stereo not shown) , please.
Reply | 43

Ask | Could you share which IC50 value was measured for [2H]c1ccc2c(-n3ncc(C(=O)Nc4cnc(-n5nccn5)c(C#N)c4)c3C(F)(F)F)cccc2n1 ?
Reply | 166

---

Examples of molecules with documented pIC50 follow.
# Test system: IL10 secretion by TMD8 ABC-DLBCL cells
# experimental_details: Human IL10 Mesoscale assay (TMD-8)
# Type: cell-based
# test_context: Homo sapiens, TMD8; TMD-8 cells, 24 h
Lab note: report pIC50 as minus log10 of the concentration in molar units, number only.

Below, each entry is followed by its recorded pIC50 result.
{"molecule": "O=C(Nc1cnc(-n2nccn2)c(Cl)c1)c1cnn(-c2ccc(F)c3cccnc23)c1C(F)(F)F", "pIC50": 6.32}
{"molecule": "NC(=O)c1cnn(-c2ncc(NC(=O)c3cnn(-c4cccc5ncccc45)c3C(F)(F)F)cc2Cl)n1", "pIC50": 7.31}
{"molecule": "O=C(Nc1ccc(-n2cc(CO)cn2)c(Cl)c1)c1cnn(-c2cccc3ncccc23)c1C(F)(F)F", "pIC50": 6.69}
{"molecule": "O=C(Nc1cnc(-n2nccn2)c(Cl)c1)c1cnn(-c2cccc3nc(C(F)F)ccc23)c1C(F)(F)F", "pIC50": 7.55}
{"molecule": "O=C(Nc1cnc(-n2nccn2)c(Cl)c1)c1cnn(-c2cnc([C@@H]3CCCO3)c3ccccc23)c1C(F)(F)F (single isomer, unassigned)", "pIC50": 5.60}
{"molecule": "CC(=O)c1cc(-n2ncc(C(=O)Nc3cnc(-n4nccn4)c(Cl)c3)c2C(F)(F)F)c2ccccc2n1", "pIC50": 7.07}

Next up:
Ask | Which value of pIC50 has been reported for Cc1ccc2cncc(-n3ncc(C(=O)Nc4cnc(-n5nccn5)c(Cl)c4)c3C(F)(F)F)c2c1 in the records?
Reply | 6.85

---

# Test system: IL6 secretion by OCI-LY3 ABC-DLBCL cells
# experimental_details: Human IL6 Mesoscale assay (OCI-LY3)
# Assay type: cell-based
# test_context: Homo sapiens, 24 h
Parameter class (string): assigned from measured IC50. Ranges: label 0 (below 80 nM), label 1 (80 nM to below 200 nM), label 2 (200 nM or more)

Reference set, count: 2
{"compound": "Nc1ncc(-n2ncc(C(=O)Nc3cncc(C(F)(F)F)c3)c2C(F)(F)F)c2ccccc12", "class_assignment": "label 1"}
{"compound": "O=C(Nc1ccc(-c2n[nH]c(=O)[nH]2)c(Cl)c1)c1cnn(-c2cccc3ncccc23)c1C(F)(F)F", "class_assignment": "label 2"}

Ask | Which category fits this record: CN(C=O)Cc1ncc(-n2ncc(C(=O)Nc3cnc(-n4nccn4)c(Cl)c3)c2C(F)(F)F)c2ccccc12
Reply | label 0

Ask | Each compound maps to one class by IC50. Which class for CNC(=O)c1ncc(-n2ncc(C(=O)Nc3cnc(-n4nccn4)c(Cl)c3)c2C(F)(F)F)c2ccccc12 ?
Reply | label 1
